- target_entity: human ether-à-go-go-related gene (hERG) potassium channel (human, UniProt Q12809);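 further: peak tail current of the secondary pulse compared with the same well before compound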
- Sequence (Q12809 whole entry, looked up): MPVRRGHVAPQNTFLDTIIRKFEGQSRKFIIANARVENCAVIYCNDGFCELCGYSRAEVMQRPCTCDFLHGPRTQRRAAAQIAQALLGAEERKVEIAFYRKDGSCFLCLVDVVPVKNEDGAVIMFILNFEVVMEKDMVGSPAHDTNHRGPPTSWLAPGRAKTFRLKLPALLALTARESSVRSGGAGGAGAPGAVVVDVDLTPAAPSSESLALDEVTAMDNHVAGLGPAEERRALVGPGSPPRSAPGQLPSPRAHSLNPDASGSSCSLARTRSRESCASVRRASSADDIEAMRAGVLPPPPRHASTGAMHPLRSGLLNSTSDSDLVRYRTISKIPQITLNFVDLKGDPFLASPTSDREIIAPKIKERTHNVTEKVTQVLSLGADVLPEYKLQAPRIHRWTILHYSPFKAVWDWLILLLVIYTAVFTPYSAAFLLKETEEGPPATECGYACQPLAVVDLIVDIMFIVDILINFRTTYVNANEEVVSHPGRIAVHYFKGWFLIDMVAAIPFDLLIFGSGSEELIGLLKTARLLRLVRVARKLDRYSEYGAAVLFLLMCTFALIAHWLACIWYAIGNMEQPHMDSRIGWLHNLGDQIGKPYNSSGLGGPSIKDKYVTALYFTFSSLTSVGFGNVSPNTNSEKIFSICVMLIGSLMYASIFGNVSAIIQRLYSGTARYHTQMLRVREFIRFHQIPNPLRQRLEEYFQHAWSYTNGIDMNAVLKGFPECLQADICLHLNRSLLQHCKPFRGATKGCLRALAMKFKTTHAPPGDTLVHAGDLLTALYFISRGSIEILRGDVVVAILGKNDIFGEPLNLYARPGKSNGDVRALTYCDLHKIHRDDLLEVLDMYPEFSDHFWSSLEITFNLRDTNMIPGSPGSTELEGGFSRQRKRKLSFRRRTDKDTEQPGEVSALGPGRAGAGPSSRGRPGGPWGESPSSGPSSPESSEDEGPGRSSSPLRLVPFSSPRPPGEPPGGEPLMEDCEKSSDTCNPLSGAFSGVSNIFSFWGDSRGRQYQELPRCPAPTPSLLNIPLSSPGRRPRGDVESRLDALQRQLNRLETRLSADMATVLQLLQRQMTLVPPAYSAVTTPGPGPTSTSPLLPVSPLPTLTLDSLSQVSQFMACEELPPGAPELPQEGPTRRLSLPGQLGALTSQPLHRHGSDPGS
- procedure_details: primary screen, population patch clamp on CHO cells stably expressing hERG; higher = less effect of the substance
In all, about 310,000 compounds went through this assay and about 14,000 (4.5%) showed an effect of 50% or more. Effects have a minus sign here. The sample holds strong results, similar compounds and a random draw of the others, so the mix is not that of the screen.
Would you kindly list hERG current change (%, negative = inhibition) at 10uM for each of these molecules?
The answer consists of two parts: a number and, after it, its unit.

See these solved cases before continuing.
# molecule, observed
rows = [
    ("O=C(O)/C=C/C(=O)Nc1ccc(Cl)cc1C(=O)c1ccccc1", "-7.6%"),
    ("Cc1ccccc1N=C1SCCN1C(=O)CN1C(=O)NC2(CCCC2)C1=O", "-21.7%"),
    ("O=C(COC(=O)C1CC2CCCC(C1)C2=O)NC(=O)c1ccc(OC(F)F)cc1 (centres unmarked)", "23.2%"),
    ("O=C(Nc1ccc(C(F)(F)F)cc1)c1csc(-c2ccncc2)n1", "-25.4%"),
]

Tell me hERG current change (%, negative = inhibition) at 10uM reported for COc1ccc([N+](=O)[O-])c(OC)c1C(=O)NC(=O)Nc1nc(C)cc(C)n1
18%

---

Would you kindly list hERG current change (%, negative = inhibition) at 10uM for each of these compounds?
- target_entity: human ether-à-go-go-related gene (hERG) potassium channel (human);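 further: peak tail current of the secondary pulse compared with the same well before compound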
- procedure_details: primary screen, population patch clamp on CHO cells stably expressing hERG; higher = less effect of the substance
In all, about 310,000 compounds went through this assay and about 14,000 (4.5%) showed an effect of 50% or more. Effects have a minus sign here. This excerpt belongs to a sample that is enriched for strong results.
Numbers only, in %.

# compound, target_entity, observed
records = [
    ("COc1ccc(N2CCN(C(=O)c3cccc(NC(=O)c4ccco4)c3)CC2)cc1", "human ether-à-go-go-related gene (hERG) potassium channel (human)", -43.8),
    ("CCOc1cc(/C=C2/NC(=O)N(CC(=O)OC)C2=O)ccc1O", "human ether-à-go-go-related gene (hERG) potassium channel (human)", 3.71),
    ("Cc1ccc(C(=O)N2CCN(C(=O)c3ccco3)CC2)cc1NC(=O)c1ccco1", "human ether-à-go-go-related gene (hERG) potassium channel (human)", -44.1),
    ("O=C(c1ccco1)N1CCc2ccccc21", "human ether-à-go-go-related gene (hERG) potassium channel (human)", -3.68),
    ("CS(=O)(=O)Nc1cccc(C2=NN(C(=O)c3cccc([N+](=O)[O-])c3)C(c3cccs3)C2)c1 (centres unmarked)", "human ether-à-go-go-related gene (hERG) potassium channel (human)", -13.4),
    ("Cc1ccc(Nc2c(-c3ccc(N4CCOCC4)cc3)nc3ncccn23)cc1C", "human ether-à-go-go-related gene (hERG) potassium channel (human)", 7.71),
]

Please give hERG current change (%, negative = inhibition) at 10uM, item by item, for the list that follows.
1. COc1ccc(C2=NOC(Cn3nc(C(=O)NCc4ccc(C)cc4)cc3-c3ccccc3)C2)cc1 (centres unmarked)
2. CCCN(CC(=O)Nc1ccccc1OC)C(=O)CCNC(=O)c1ccccc1OC
3. Cc1ccc(NC(=O)CSc2nnc(-c3ccncc3)s2)cc1
4. CC(C)COC(=O)Nc1ccccc1C(=O)N1CCOCC1
5. COc1ccc(C2=NOC(Cn3nc(C(=O)NCc4ccccc4OC)cc3-c3ccccc3)C2)cc1 (centres unmarked)
6. Cc1ccc(C2(C)NC(=O)N(CC(=O)N3CCN(S(=O)(=O)c4cccs4)CC3)C2=O)cc1 (centres unmarked)

2.68
-2.16
5.52
9.75
-16.2
-31.9

Please give hERG current change (%, negative = inhibition) at 10uM, item by item, for the list that follows.
1. CC[N+](C)(C)CCN(Cc1ccc(Cl)cc1)c1ccccn1.[Br-]
2. COn1c(SCc2ccc(C)cc2C)nc2ccccc2c1=O
3. Cc1c(C(=O)Nc2ccccc2)c2cc(O)ccc2n1Cc1ccccc1
4. O=C(COc1ccc(Cl)cc1)N(Cc1ccccc1)c1ccccn1
5. O=C(COC(=O)CCc1c[nH]c2ccccc12)NCc1ccc2c(c1)OCO2
6. CCN(C(=O)CN1CCN(c2cccc(C(F)(F)F)c2)CC1)c1c(N)n(Cc2ccccc2)c(=O)[nH]c1=O
7. CC[C@H](C)C(N)c1cn([C@@H](CC(N)=O)C(=O)N2CCNCC2)nn1 (some centres unmarked)
8. N=c1c2c3c(sc2ncn1N)CCCC3

[-68.6, 7.64, 4.2, -36, 13.2, -20.3, -10.5, 2.04]

Please give hERG current change (%, negative = inhibition) at 10uM, item by item, for the list that follows.
1. COc1ccc(C2=NOC(Cn3nc(C(=O)O)cc3-c3ccccc3)C2)cc1 (centres unmarked)
2. Cc1ccc(N(CC(=O)NCc2ccco2)C(=O)CCC(=O)Nc2nccs2)cc1
3. CCOC(=O)N1CCC(NC(=O)CCc2nc(C3=CCN(C)CC3)no2)CC1

[-10.3, -1.5, -3.37]

Please give hERG current change (%, negative = inhibition) at 10uM, item by item, for the list that follows.
1. O=C(CSc1nc2ccsc2c(=O)n1CC1CCC(C(=O)O)CC1)c1ccc(Cl)cc1 (centres unmarked)
2. COc1cccc(N(CC(=O)NC2CCCC2)C(=O)CCC(=O)Nc2cc(C)on2)c1
3. COc1ccc(C2=NOC(Cn3nc(C(=O)NCc4ccco4)cc3-c3ccccc3)C2)cc1 (centres unmarked)
4. COc1ccc(C2=NOC(Cn3nc(C(=O)NCc4cccs4)cc3-c3ccccc3)C2)cc1 (centres unmarked)
5. COc1ccc(C2=NOC(Cn3nc(C(=O)NCc4ccc5c(c4)OCO5)cc3-c3ccccc3)C2)cc1 (centres unmarked)

[33.9, -16.4, -68.2, -51.3, -17.4]

Please give hERG current change (%, negative = inhibition) at 10uM, item by item, for the list that follows.
1. Cc1ccc(C(=O)N2CCN(c3ccccc3)CC2)cc1NC(=O)c1ccco1
2. Cc1nn(-c2ccccc2)c(Cl)c1/C=N/Nc1ccc(Cl)c(C(=O)O)c1
3. CCCCCCCCCCCCCCCC[N+](C)(C)CCN(Cc1ccc(OC)cc1)c1ncccn1.[Br-]
4. Cc1ccc(C2(C)NC(=O)N(CC(=O)N3CCN(S(=O)(=O)c4cccc(F)c4)CC3)C2=O)cc1 (centres unmarked)

[-45.7, 21.3, -75, -65.7]

Please give hERG current change (%, negative = inhibition) at 10uM, item by item, for the list that follows.
1. COc1ccc(C2=NOC(Cn3nc(C(=O)NCc4ccc(OC(F)(F)F)cc4)cc3-c3ccccc3)C2)cc1 (centres unmarked)
2. COC(=O)c1c(NC(=O)COC(=O)C2CCC2)sc(C)c1C
3. Cc1cc(-c2n[nH]c(=S)n2/N=C/c2ccco2)n[nH]1
4. Cc1nc(C(=O)NNC(=O)c2ccc(Cl)cc2)c(C(F)(F)F)o1

-3.95
-13.4
7.99
7.36

Please give hERG current change (%, negative = inhibition) at 10uM, item by item, for the list that follows.
1. COc1ccc(N2CCN(C(=O)c3ccc(C)c(NC(=O)c4ccco4)c3)CC2)cc1
2. Cn1nccc1C(=O)N/N=C/c1cccnc1

[-74.8, -14.8]

---

- target_entity: human ether-à-go-go-related gene (hERG) potassium channel (human, UniProt Q12809);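 further: peak tail current of the secondary pulse compared with the same well before compound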
- procedure_details: primary screen, population patch clamp on CHO cells stably expressing hERG; higher = less effect of the substance
Screen size: about 310,000 compounds; about 14,000 (4.5%) showed an effect of 50% or more. The effect is printed as a negative number. The entries come from a sample that favours strong results as a whole.
endpoint: hERG current change (%, negative = inhibition) at 10uM (%)
Answers are plain numbers, in %.

See these solved cases before continuing.
# smiles_structure, observed
rows = [
    ("COc1cccc(CN2CCCN(S(=O)(=O)c3ccc(Br)cc3)CC2)c1", -58.6),
    ("COc1ccc(CN2CCCN(S(=O)(=O)c3ccc(Br)cc3)CC2)cc1", -74.4),
    ("CCN1CCN(C(=O)Nc2cc(Cl)ccc2OC)CC1", 2.98),
    ("COc1ccc(S(=O)(=O)N2CCCN(Cc3cccc(F)c3)CC2)cc1", -44.6),
]

Continue with the molecule presented below.
Tell me hERG current change (%, negative = inhibition) at 10uM reported for Cc1ccc(NC(=O)c2cnc(N3CCN(c4ccccn4)CC3)c3ccccc23)c(Br)c1
10.7

---

- target_entity: human ether-à-go-go-related gene (hERG) potassium channel (human);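 further: peak tail current of the secondary pulse compared with the same well before compound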
- procedure_details: primary screen, population patch clamp on CHO cells stably expressing hERG; higher = less effect of the substance
The campaign covered roughly 310,000 compounds. About 14,000 (4.5%) showed an effect of 50% or more. The effect is printed as a negative number. The list comes from a sample in which strong results are over-represented; it also holds close analogues and randomly drawn compounds.
Everything with hERG current change (%, negative = inhibition) at 10uM lower than -20% is rule not met; everything else, including exactly -20%, is rule met.

Below are worked cases with known answers.
# smiles_structure, assigned_category
data = [
    ("Cc1ccc2c(c1)nnn2C1CCN(C(=O)Nc2ccccc2C)CC1", "rule not met"),
    ("COc1cccc(-c2nc(CS(=O)(=O)CC(=O)NC3CC3)c(C)o2)c1", "rule met"),
    ("COc1cccc(NC(=O)N2CCC(n3nnc4ccccc43)CC2)c1", "rule met"),
    ("COc1cccc(-c2nc(CS(=O)(=O)CC(=O)NCCCN3CCc4ccccc4C3)c(C)o2)c1", "rule not met"),
    ("COc1cccc(-c2nc(CS(=O)(=O)CC(=O)NCCCN3CCN(C)CC3)c(C)o2)c1", "rule met"),
]

Determine whether measured hERG current change (%, negative = inhibition) at 10uM meets or exceeds -20% for CCOc1ccccc1NC(=O)N1CCC(n2nnc3cc(C)ccc32)CC1
rule not met

Determine whether measured hERG current change (%, negative = inhibition) at 10uM meets or exceeds -20% for CCOc1ccccc1C(=O)N1CCC(n2nnc3cc(C(F)(F)F)ccc32)CC1
rule not met

Determine whether measured hERG current change (%, negative = inhibition) at 10uM meets or exceeds -20% for O=C(c1c(F)cccc1F)N1CCC(n2nnc3cc(C(F)(F)F)ccc32)CC1
rule not met

Determine whether measured hERG current change (%, negative = inhibition) at 10uM meets or exceeds -20% for Cc1ccc2c(c1)nnn2C1CCN(C(=O)c2ccccc2F)CC1
rule met
